- System: 786-0 renal
- Assay text: NCI tumour cell line growth inhibition, 48 h; in the data active = GI50 below about 0.43 µM; inactive = the rest
The categories you may choose from are yes for active, no for inactive

Prompt line: What was the test verdict on `COc1ccc2c(c1OC)C(=O)O[C@@H]2[C@H]1c2c(c(Br)c3c(c2OC)OCO3)CCN1C` ?
Response line: no

Prompt line: Test call, this molecule: CCCC(CCC)C(=O)OCC1(CO)C/C(=C\c2ccc(C(F)(F)F)cc2)C(=O)O1 (centres undefined)
Response line: no

Prompt line: Hi, sorry to bother you, what did the test record for `CC1=NN(C(=O)c2nn(-c3ccc(Cl)cc3)cc2O)C(=O)C1` ?
Response line: no

Prompt line: Hi, do you know how `COc1cc2c(cc1OCCCCCn1c3ccccc3c3ccccc31)N=C[C@@H]1CCCN1C2=O` came out in this test?
Response line: no

Prompt line: What did the test return for `C=C1C(=O)O[C@H]2[C@H]1CC/C(CNC(=O)/C=C/c1ccc(Cl)cc1Cl)=C\CC[C@@]1(C)O[C@@H]21` ?
Response line: no

Prompt line: Check the results log: what was the call for O=CN1N=C(c2ccc(Nc3ccnc4cc(Cl)ccc34)cc2)CC1c1ccc(Cl)cc1 (centres undefined) ?
Response line: no

Prompt line: Give the logged outcome of this assay for the following molecule: `CCc1c2c(nc3ccc(OCc4ccc(B5OC(C)(C)C(C)(C)O5)cc4)cc13)-c1cc3c(c(=O)n1C2)COC(=O)[C@]3(O)CC`
Response line: yes

Prompt line: Called result for `O=C(Cn1c2ccccc2c2ccncc21)N/N=C\c1ccc2ccccc2c1`
Response line: no

Prompt line: What did this assay record as the result for `O=C1C=C(OCCCl)C(=O)c2c(O)ccc(O)c21` ?
Response line: no

Source: PubChem BioAssay (NCI)
